SYSTEM_TESTED: α3β2γ2L (Mus musculus, UniProt P22723+P26049+P63137)
Construct: full-length subunits in pRK5, co-expressed in HEK cells; heteropentamer; with Gamma-aminobutyric acid receptor subunit gamma-2
Sequence (P26049 29-492, one chain of several): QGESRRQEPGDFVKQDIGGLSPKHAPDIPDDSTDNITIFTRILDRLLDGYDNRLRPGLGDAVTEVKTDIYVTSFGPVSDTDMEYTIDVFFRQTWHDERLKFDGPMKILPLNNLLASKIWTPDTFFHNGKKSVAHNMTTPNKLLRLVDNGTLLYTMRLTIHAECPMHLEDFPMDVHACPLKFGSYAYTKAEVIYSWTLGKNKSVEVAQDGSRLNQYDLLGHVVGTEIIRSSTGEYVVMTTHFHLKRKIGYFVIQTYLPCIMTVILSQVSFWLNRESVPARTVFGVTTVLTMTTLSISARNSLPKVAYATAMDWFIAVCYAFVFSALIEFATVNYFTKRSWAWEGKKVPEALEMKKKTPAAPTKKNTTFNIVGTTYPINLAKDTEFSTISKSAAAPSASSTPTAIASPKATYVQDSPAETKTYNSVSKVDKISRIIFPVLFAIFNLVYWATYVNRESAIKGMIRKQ
TEST_NAME: whole-cell patch clamp, HEK cells, Hill fit
ENDPOINT_LABEL: pEC50
The value called pEC50 is obtained by taking minus log10 of the concentration in mol/L.

The reported pEC50 of the compound NCCCC(=O)O [GABA] was 4.19

====

SYSTEM_TESTED: α3β2γ2L (Mus musculus, UniProt P22723+P26049+P63137)
Construct: full-length subunits in pRK5, co-expressed in HEK cells; heteropentamer; with Gamma-aminobutyric acid receptor subunit gamma-2
TEST_NAME: whole-cell patch clamp, HEK cells
TEST_CONDITIONS: read-out: PS IC50
ENDPOINT_LABEL: IC50
Provide a numeric answer, followed by its unit.

# IC50 of CC(=O)[C@H]1CC[C@H]2[C@@H]3CC=C4C[C@@H](OS(=O)(=O)O)CC[C@]4(C)[C@H]3CC[C@]12C [pregnenolone sulphate] = 600 nM

====

SYSTEM_TESTED: α2β2γ2L (Mus musculus, UniProt P22723+P26048+P63137)
Construct: full-length subunits in pRK5, co-expressed in HEK cells; heteropentamer; with Gamma-aminobutyric acid receptor subunit gamma-2
Sequence (P26048 29-451, one chain of several): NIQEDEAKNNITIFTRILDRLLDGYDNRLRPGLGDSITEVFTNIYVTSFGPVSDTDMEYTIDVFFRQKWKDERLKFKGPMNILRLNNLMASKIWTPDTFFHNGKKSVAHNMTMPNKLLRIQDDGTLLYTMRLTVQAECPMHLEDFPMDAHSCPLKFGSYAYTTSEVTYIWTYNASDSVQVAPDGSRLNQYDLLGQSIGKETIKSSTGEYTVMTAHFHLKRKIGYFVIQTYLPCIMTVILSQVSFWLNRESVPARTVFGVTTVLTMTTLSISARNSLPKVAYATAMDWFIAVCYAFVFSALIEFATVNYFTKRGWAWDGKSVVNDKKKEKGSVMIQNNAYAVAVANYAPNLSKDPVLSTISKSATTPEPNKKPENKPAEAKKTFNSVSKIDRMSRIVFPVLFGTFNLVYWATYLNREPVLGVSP
TEST_NAME: whole-cell patch clamp, HEK cells
TEST_CONDITIONS: read-out: PS IC50
ENDPOINT_LABEL: IC50 (nM)
The reply should be a number in nM, with the unit left off.

For CC(=O)[C@H]1CC[C@H]2[C@@H]3CC=C4C[C@@H](OS(=O)(=O)O)CC[C@]4(C)[C@H]3CC[C@]12C [pregnenolone sulphate] the compound record lists IC50 as 400

====

SYSTEM_TESTED: α1β3γ2L (Mus musculus, UniProt P22723+P62812+P63080)
Construct: full-length subunits in pRK5, co-expressed in HEK cells; heteropentamer; with Gamma-aminobutyric acid receptor subunit gamma-2
Sequence (P62812 28-455): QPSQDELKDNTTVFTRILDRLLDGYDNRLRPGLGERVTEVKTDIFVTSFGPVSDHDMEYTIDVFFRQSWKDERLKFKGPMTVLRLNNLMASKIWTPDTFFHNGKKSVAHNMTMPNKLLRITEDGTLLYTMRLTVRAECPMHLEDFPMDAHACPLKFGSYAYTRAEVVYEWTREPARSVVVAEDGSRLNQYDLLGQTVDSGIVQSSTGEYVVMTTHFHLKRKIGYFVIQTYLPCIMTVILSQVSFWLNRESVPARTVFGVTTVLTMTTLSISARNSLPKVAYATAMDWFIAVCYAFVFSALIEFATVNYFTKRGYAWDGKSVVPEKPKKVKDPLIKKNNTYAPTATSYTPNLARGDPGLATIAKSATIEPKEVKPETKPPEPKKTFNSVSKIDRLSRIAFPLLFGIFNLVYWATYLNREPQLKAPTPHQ
Sequence (P63080 26-473): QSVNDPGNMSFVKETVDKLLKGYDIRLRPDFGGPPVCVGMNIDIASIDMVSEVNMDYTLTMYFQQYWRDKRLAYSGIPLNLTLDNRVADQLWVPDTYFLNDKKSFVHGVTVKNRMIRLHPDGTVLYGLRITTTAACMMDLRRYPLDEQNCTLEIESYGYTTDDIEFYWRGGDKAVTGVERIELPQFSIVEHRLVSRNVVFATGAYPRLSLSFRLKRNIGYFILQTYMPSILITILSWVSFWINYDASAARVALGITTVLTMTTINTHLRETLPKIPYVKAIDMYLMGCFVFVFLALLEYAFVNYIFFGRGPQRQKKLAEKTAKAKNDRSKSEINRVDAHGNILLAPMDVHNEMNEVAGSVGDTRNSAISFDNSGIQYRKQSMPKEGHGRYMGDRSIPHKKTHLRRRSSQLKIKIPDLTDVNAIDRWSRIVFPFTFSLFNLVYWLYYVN
Sequence (P22723 39-474): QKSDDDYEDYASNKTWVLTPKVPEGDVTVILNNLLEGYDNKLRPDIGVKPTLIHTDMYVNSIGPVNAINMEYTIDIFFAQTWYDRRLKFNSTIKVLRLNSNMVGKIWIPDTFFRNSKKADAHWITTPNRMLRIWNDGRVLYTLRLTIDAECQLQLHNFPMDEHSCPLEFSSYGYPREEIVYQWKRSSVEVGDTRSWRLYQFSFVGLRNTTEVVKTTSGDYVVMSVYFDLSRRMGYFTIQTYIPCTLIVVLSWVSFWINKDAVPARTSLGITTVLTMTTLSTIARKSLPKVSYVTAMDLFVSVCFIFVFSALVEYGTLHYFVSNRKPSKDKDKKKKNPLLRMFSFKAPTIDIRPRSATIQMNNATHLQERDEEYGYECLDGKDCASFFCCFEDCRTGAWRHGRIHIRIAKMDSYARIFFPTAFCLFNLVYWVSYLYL
TEST_NAME: whole-cell patch clamp, HEK cells
TEST_CONDITIONS: read-out: PS IC50
ENDPOINT_LABEL: IC50
Write the figure, then the unit, nothing else.

Fill in: α1β3γ2L (Mus musculus, UniProt P22723+P62812+P63080) IC50 for CC(=O)[C@H]1CC[C@H]2[C@@H]3CC=C4C[C@@H](OS(=O)(=O)O)CC[C@]4(C)[C@H]3CC[C@]12C [pregnenolone sulphate] = 1 µM

====

SYSTEM_TESTED: α1β2γ2L (Mus musculus, UniProt P22723+P62812+P63137, P62812:V283S)
Construct: full-length subunits in pRK5, co-expressed 1:1:1 in HEK cells; heteropentamer; with Gamma-aminobutyric acid receptor subunit gamma-2
Sequence (P62812 28-455 V283S): as the sequence (P62812 28-455) above, with V256S counted along it
Sequence (P63137 26-512): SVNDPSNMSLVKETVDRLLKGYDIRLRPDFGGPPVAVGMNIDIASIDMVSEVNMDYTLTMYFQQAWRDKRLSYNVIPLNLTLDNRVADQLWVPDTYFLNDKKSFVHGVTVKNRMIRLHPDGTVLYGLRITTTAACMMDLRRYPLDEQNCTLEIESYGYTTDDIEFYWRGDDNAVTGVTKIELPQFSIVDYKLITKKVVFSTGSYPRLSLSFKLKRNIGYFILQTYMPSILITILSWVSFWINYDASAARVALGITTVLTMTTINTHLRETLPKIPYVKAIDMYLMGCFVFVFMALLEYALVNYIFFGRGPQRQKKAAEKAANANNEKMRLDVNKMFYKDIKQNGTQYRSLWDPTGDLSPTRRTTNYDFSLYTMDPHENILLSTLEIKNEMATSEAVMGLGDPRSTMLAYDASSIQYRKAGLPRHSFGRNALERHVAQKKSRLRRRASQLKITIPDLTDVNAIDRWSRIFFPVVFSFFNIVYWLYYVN
Sequence (P22723 39-474): as the sequence (P22723 39-474) above
TEST_NAME: whole-cell patch clamp, HEK cells
ENDPOINT_LABEL: IC50 (µM)
Field format: number, assumed µM, no unit text.

IC50 measured on CC(=O)[C@H]1CC[C@H]2[C@@H]3CC=C4C[C@@H](OS(=O)(=O)O)CC[C@]4(C)[C@H]3CC[C@]12C [pregnenolone sulphate] = 35.5

====

SYSTEM_TESTED: α6β2δ (Mus musculus, UniProt P16305+P22933+P63137)
Construct: full-length subunits in pRK5, co-expressed in HEK cells; heteropentamer; with Gamma-aminobutyric acid receptor subunit delta
Sequence (P16305 20-453): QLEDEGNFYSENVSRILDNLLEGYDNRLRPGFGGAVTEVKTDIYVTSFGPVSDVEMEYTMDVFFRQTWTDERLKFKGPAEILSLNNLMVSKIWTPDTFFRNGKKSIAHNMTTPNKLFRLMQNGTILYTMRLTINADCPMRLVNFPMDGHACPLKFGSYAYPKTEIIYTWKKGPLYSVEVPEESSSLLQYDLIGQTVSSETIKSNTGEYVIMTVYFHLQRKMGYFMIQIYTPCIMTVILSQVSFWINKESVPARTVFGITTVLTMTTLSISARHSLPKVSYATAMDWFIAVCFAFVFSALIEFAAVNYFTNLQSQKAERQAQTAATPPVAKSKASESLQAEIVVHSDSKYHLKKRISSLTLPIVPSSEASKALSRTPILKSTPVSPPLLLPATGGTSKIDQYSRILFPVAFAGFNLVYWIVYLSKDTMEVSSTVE
Sequence (P63137 26-512): as the sequence (P63137 26-512) above
Sequence (P22933 25-449): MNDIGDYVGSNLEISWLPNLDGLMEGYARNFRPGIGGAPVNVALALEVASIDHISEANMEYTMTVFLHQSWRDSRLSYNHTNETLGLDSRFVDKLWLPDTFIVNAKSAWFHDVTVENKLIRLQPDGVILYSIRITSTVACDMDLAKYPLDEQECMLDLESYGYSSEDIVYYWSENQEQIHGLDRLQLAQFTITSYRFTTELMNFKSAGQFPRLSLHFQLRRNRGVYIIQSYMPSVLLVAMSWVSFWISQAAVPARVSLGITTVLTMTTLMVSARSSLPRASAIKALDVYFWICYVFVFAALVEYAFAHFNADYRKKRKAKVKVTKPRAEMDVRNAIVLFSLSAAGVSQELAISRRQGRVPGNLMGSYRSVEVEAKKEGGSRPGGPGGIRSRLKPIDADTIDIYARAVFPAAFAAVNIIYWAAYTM
TEST_NAME: whole-cell patch clamp, HEK cells
TEST_CONDITIONS: read-out: PS IC50
ENDPOINT_LABEL: IC50 (nM)
Report the figure in nM without appending any unit label.

IC50 recorded for this compound, CC(=O)[C@H]1CC[C@H]2[C@@H]3CC=C4C[C@@H](OS(=O)(=O)O)CC[C@]4(C)[C@H]3CC[C@]12C [pregnenolone sulphate] , is 1300

====

SYSTEM_TESTED: α1β2γ2L (Mus musculus, UniProt P22723+P62812+P63137)
Construct: full-length subunits in pRK5, co-expressed 1:1:1 in HEK cells; heteropentamer; with Gamma-aminobutyric acid receptor subunit gamma-2
TEST_NAME: whole-cell patch clamp, HEK cells
TEST_CONDITIONS: read-out: PS IC50
ENDPOINT_LABEL: pIC50
Lab note — pIC50 values are minus log10 of concentrations in M.

Reading of pIC50 for CC(=O)[C@H]1CC[C@H]2[C@@H]3CC=C4C[C@@H](OS(=O)(=O)O)CC[C@]4(C)[C@H]3CC[C@]12C [pregnenolone sulphate] with α1β2γ2L (Mus musculus, UniProt P22723+P62812+P63137): 6.40

====

SYSTEM_TESTED: ρ1 (Homo sapiens, UniProt P24046)
Construct: full-length subunit in pRK5, HEK cells; homopentamer
Sequence (P24046 22-479): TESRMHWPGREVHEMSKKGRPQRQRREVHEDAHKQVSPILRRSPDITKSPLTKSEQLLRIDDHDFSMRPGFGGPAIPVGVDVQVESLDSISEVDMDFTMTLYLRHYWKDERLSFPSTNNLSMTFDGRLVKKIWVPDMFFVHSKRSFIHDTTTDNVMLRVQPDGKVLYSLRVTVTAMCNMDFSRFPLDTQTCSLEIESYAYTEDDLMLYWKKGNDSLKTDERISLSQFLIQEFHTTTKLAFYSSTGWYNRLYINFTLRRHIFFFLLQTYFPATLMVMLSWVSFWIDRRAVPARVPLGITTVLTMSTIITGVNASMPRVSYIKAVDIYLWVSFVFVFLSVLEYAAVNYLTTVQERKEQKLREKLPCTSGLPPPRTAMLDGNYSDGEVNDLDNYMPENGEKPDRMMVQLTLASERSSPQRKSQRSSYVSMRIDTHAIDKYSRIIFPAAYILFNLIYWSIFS
TEST_NAME: whole-cell patch clamp, HEK cells
TEST_CONDITIONS: read-out: PS IC50
Description: whole-cell patch clamp, HEK cells on ρ1
ENDPOINT_LABEL: IC50

Reported IC50 for CC(=O)[C@H]1CC[C@H]2[C@@H]3CC=C4C[C@@H](OS(=O)(=O)O)CC[C@]4(C)[C@H]3CC[C@]12C [pregnenolone sulphate] was > 300 µM

====

SYSTEM_TESTED: ρ1 (Homo sapiens, UniProt P24046, P315V)
Construct: full-length subunit in pRK5, HEK cells; homopentamer
Sequence (P24046 22-479 P315V): as the sequence (P24046 22-479) above, with P294V counted along it
TEST_NAME: whole-cell patch clamp, HEK cells
ENDPOINT_LABEL: IC50 (µM)
Express the result in µM but write the number alone.

Looking up CC(=O)[C@H]1CC[C@H]2[C@@H]3CC=C4C[C@@H](OS(=O)(=O)O)CC[C@]4(C)[C@H]3CC[C@]12C [pregnenolone sulphate] , I found its IC50 recorded as 6

====

SYSTEM_TESTED: α4β2δ (Mus musculus, UniProt P22933+P63137+Q9D6F4)
Construct: full-length subunits in pRK5, co-expressed in HEK cells; heteropentamer; with Gamma-aminobutyric acid receptor subunit delta
Sequence (Q9D6F4 36-552): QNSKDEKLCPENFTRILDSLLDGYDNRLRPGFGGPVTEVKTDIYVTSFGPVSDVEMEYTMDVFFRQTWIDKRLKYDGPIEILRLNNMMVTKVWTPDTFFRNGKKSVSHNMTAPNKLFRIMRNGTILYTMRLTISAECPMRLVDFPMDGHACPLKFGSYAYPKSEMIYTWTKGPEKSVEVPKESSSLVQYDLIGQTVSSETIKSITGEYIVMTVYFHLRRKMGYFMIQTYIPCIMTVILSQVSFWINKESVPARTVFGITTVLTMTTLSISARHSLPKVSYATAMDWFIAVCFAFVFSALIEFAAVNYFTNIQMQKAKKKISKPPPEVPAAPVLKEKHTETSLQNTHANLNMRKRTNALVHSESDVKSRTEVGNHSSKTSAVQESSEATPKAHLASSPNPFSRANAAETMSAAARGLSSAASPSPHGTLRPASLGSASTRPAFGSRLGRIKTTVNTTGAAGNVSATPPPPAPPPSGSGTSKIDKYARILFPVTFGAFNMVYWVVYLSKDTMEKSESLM
Sequence (P63137 26-512): as the sequence (P63137 26-512) above
Sequence (P22933 25-449): as the sequence (P22933 25-449) above
TEST_NAME: whole-cell patch clamp, HEK cells
TEST_CONDITIONS: read-out: PS IC50
Text: whole-cell patch clamp, HEK cells on α4β2δ
ENDPOINT_LABEL: IC50 (µM)
Expressed in µM, but write only the number.

Reported IC50 of CC(=O)[C@H]1CC[C@H]2[C@@H]3CC=C4C[C@@H](OS(=O)(=O)O)CC[C@]4(C)[C@H]3CC[C@]12C [pregnenolone sulphate] : 1.3
